Entries and their measured Zeta potential (mV) follow.
experiment: LNP size, PDI and zeta potential by Dynamic Light Scattering (Method A); format: physicochemical; settings: LNP formulated by Method A, 1xPBS pH 7.4
measure: Zeta potential (mV)

* CCCCCCCCSC(CCCCCCC)O[Si](C)(C)OCCCCCCN(CCCCO)CCCCCCO[Si](C)(C)OC(CCCCCCC)SCCCCCCCC (stereo not drawn) [Example 115] | 0.3
* CCCCCCCCC(CCCCCC)CO[Si](C)(C)OC(CCCCCCC)OCCCCCCN(CCCCO)CCCCCCOC(=O)C(CCCCCC)CCCCCCCC (stereo not drawn) [Example 137] | −16.61
* CC/C=C\C/C=C\C/C=C\C/C=C\C/C=C\CCCCN(CCCCO)CCCCCCOC(CCCCCCC)O[Si](C)(C)O[Si](C)(C)CCCCCCCC (stereo not drawn) [Example 199] | −12.42
* CC/C=C\C/C=C\C/C=C\C/C=C\C/C=C\CCCCN(CCCCO)CCCCCC(OCCCCCCCC)O[Si](C)(C)OCC(CCCCCC)CCCCCCCC (stereo not drawn) [Example 202] | −10.0
* CCCCCCCC[Si](C)(C)OC(CCCCCCC)OCCCCCCN(CCCCO)CCCCCCOC(CCCCCCC)O[Si](C)(C)CCCCCCCC (stereo not drawn) [Example 102] | −3.4
* CCCCCCCCCCSC(CCCC)C(=O)OCCCCCCN(CCCCO)CCCCCCOC(CCCCCCC)O[Si](C)(C)OCC(CCCCCC)CCCCCCCC (stereo not drawn) [Example 175] | −11.78

Just for reference, patent US20260008793A1 is where these values come from.
